Target: 5-hydroxytryptamine receptor 1A (Homo sapiens, UniProt P08908)
Assay: Displacement of [3H]-8-OH-DPAT from human 5-HT1A receptor expressed in CHOK1 cells after 30 mins by liquid scintillation counting analysis
MEASUREMENT NAME: IC50

Q) Recorded IC50 for COc1ccc(Br)c(CC2CCN(C3CCN(c4ccc(OC)c(OC)c4)CC3)CC2)c1 , please?
A) < 10 nM

====

Target chain: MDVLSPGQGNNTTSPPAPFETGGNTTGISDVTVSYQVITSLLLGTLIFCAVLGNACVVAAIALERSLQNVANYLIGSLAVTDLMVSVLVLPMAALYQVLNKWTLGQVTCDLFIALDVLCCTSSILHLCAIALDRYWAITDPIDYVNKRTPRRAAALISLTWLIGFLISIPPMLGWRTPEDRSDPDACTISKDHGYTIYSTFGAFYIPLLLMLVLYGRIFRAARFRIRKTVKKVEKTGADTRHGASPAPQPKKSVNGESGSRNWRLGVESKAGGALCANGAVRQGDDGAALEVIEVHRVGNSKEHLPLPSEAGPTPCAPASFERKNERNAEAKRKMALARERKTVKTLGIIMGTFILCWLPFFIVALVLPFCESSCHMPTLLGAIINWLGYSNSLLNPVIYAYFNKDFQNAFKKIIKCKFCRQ
MEASUREMENT NAME: Ki (nM)
Output spec: scalar in nM, unitless text.

Use the examples below as a reference point.
{"SMILES": "COc1ccc(Br)c(CC2CCN(CCc3ccc(OC)c(Cl)c3)CC2)c1", "VALUE MEASURED": 1.04}
{"SMILES": "COc1ccc(Br)c(CC2CCN(CCc3cccc(Cl)c3)CC2)c1", "VALUE MEASURED": 2.93}
{"SMILES": "CCOc1ccc(Br)c(CC2CCN(CCc3cc4c(cc3Cl)OCCO4)CC2)c1", "VALUE MEASURED": 23.4}

Q) Looking for the measured Ki of COc1ccc(Br)c(CC2CCN(CCc3ccccc3Cl)CC2)c1 , can you help?
A) 4.08

Q) What measured Ki goes with COc1ccc(Br)c(CC2CCN(CCc3ccc(OC)c(OC)c3)CC2)c1 ?
A) 1.56
